Form field: log10(EC50) (one value per entry).
ASSAY SYSTEM: human M2 receptor (Homo sapiens, UniProt P08172)
Construct: expressed in transfected cells; host or cells: CHO-DUKX (CHO-DUKX-M2-GIRK)
Sequence (P08172 1-466): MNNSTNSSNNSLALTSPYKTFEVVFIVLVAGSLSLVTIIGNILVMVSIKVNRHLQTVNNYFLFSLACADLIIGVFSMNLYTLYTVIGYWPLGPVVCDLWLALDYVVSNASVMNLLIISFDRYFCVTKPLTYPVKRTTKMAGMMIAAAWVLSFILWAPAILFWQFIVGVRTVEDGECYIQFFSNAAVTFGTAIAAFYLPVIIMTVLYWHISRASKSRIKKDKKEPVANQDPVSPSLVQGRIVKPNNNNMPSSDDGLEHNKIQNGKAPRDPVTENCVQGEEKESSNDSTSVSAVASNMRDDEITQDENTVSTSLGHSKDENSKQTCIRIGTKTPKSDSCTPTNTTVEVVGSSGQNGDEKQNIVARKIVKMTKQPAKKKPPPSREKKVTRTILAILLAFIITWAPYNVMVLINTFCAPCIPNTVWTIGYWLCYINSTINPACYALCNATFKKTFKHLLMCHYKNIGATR
ASSAY: Functional M2-GIRK1/4 activation test: allosteric potency (EC50) and efficiency at EC20 acetylcholine
Assay type: cell-based
STUDY CONDITIONS: CHO-DUKX-M2-GIRK cells; voltage-sensitive dye; acetylcholine at EC20; in some cases mean of two or more determinations
ENDPOINT LABEL: log10(EC50) (log10 of the value in nM)

COMPOUND	log10(EC50)
CCC(NC(=O)c1cn(-c2c(F)cc(F)cc2F)c2nc(N3C[C@@H](O)[C@@H](O)C3)c(F)cc2c1=O)C(C)C (stereo partly shown) [Example 106]	0.86
O=C(NC(C(F)(F)F)C(F)(F)F)c1cn(-c2c(F)cc(F)cc2F)c2nc(N3CC4(COC4)C3)c(F)cc2c1=O	1.80
O=C(N[C@@H](C1CC1)C(F)(F)F)c1cn(-c2c(F)cccc2F)c2nc(N3C[C@@H](O)[C@H](O)C3)c(F)cc2c1=O	1.55
O=C(N[C@@H](C1CC1)C(F)(F)F)c1cn(-c2c(F)cc(F)cc2Cl)c2nc(N3CC(CO)(CO)C3)c(F)cc2c1=O (single isomer, unassigned) [Example 71]	0.62
CC(C)(CC(F)(F)F)NC(=O)c1cn(-c2c(F)cc(F)cc2F)c2nc(N3C[C@@H](O)[C@@H](O)C3)c(F)cc2c1=O	0.81
CC(C)(NC(=O)c1cn(-c2c(F)cc(F)cc2F)c2nc(N3CCOCC3)c(F)cc2c1=O)C(F)(F)F	1.32
O=C(N[C@@H](C1CC1)C(F)(F)F)c1cn(-c2c(F)cc(F)cc2F)c2nc(N3C[C@@H](O)[C@H](O)C3)c(Br)cc2c1=O	0.86
C[C@H](NC(=O)c1cn(-c2c(F)cc(F)cc2F)c2nc(N3C[C@@H](O)[C@H](O)C3)c(F)cc2c1=O)c1ccccc1	0.87
O=C(NCc1c(Cl)cccc1Cl)c1cn(-c2c(F)cc(F)cc2F)c2nc(N3C[C@@H](O)[C@H](O)C3)c(F)cc2c1=O	1.00
COC[C@@H](NC(=O)c1cn(-c2c(F)cc(F)cc2F)c2nc(N3C[C@@H](O)[C@H](O)C3)c(F)cc2c1=O)C(C)C	1.90
O=C(NC(C(F)(F)F)C(F)(F)F)c1cn(-c2ncc(F)cc2F)c2nc(N3CCC(CO)(CO)CC3)c(F)cc2c1=O	1.76
C[C@H](NC(=O)c1cn(-c2c(F)cc(F)cc2Cl)c2nc(N3C[C@@H](O)[C@H](O)C3)c(F)cc2c1=O)C(F)(F)F (single isomer, unassigned) [Example 226]	0.83
CC(C)C[C@@H](NC(=O)c1cn(-c2c(F)cc(F)cc2F)c2nc(N3C[C@@H](O)[C@H](O)C3)c(F)cc2c1=O)C(F)(F)F	0.74

Where do the numbers come from? From patent US11472803B2.
